target: Aurora B (Homo sapiens, UniProt Q96GD4)
Sequence (Q96GD4 whole entry): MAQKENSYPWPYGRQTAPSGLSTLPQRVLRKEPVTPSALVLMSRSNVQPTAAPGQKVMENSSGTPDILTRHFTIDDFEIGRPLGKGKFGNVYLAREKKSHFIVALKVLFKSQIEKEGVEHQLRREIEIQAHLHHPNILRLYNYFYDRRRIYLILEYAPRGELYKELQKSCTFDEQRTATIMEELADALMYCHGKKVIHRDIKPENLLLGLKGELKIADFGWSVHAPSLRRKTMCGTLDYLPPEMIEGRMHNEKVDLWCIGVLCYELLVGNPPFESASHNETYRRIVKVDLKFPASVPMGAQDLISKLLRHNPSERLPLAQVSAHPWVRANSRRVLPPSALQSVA
pIC50: −log10 of the molar value. Where a name gives a salt, the structure may show the parent alone.
# cutoff 6 applies to pIC50; >= gives Y, < gives N

// below: answered molecules
{"molecule": "N#Cc1cnc(Nc2cccc(CN3CCN(C(=O)c4cccc(Cl)c4F)CC3)n2)s1 [Example 43]", "label value": "Y"}
{"molecule": "O=C(c1cccnc1F)N1CCN(Cc2cccc(Nc3ncc(Br)s3)n2)CC1 [Example 78]", "label value": "Y"}

Would you say O=C(c1cccc(Br)c1F)N1CCN(Cc2cccc(Nc3cc[nH]n3)n2)CC1 [Example 20, trifluoroacetate] shows pIC50 at minimum 6?
N

Would you say O=C(c1cccc(C(F)(F)F)c1F)N1CCN(Cc2cncc(Nc3ncns3)n2)CC1 [Example 57] shows pIC50 at minimum 6?
N

Would you say Cc1cnc(Nc2cccc(CN3CCN(C(=O)c4cccc(Cl)c4F)CC3)n2)s1 [Example 42, trifluoroacetate] shows pIC50 at minimum 6?
Y

Would you say O=C(O)C(F)(F)F.O=C(c1cccc(Cl)c1Cl)N1CCN(Cc2cccc(Nc3ncns3)n2)CC1 [Example 36, trifluoroacetate] shows pIC50 at minimum 6?
N

Would you say O=C(c1cccc(Cl)c1Cl)N1CCN(Cc2cncc(Nc3cc[nH]n3)n2)CC1 [Example 45] shows pIC50 at minimum 6?
N
